Ref: BigSolDB 2.1

- REPORTED_CONDITIONS: in n-octanol, 298 K
Cut-off 0.004 on solubility (mole fraction), inclusive. At or above means TRUE; below means FALSE.

Nc1ccc(S(=O)(=O)Nc2ccc(Cl)c(Cl)c2)cc1 :: FALSE
O=[N+]([O-])c1ccccc1NS(=O)(=O)c1ccccc1 :: TRUE
O=S(=O)(Nc1ccccc1Cl)c1ccccc1 :: FALSE
Cc1cc(N)ccc1S(=O)(=O)Nc1ccc(Cl)cc1 :: FALSE

Reported solubility (mole fraction) at or above 0.004? CCOC(=O)c1ccc(NS(=O)(=O)c2ccccc2)nc1
FALSE

Reported solubility (mole fraction) at or above 0.004? O=S(=O)(Nc1ccc(Cl)cc1)c1ccccc1
TRUE

Reported solubility (mole fraction) at or above 0.004? Cc1ccc(NS(=O)(=O)c2ccc(N)cc2)c(Cl)c1
FALSE

Reported solubility (mole fraction) at or above 0.004? Cc1ccc(NS(=O)(=O)c2ccc(N)cc2)cc1Cl
FALSE

Reported solubility (mole fraction) at or above 0.004? Cc1cc(Cl)ccc1NS(=O)(=O)c1ccc(N)cc1
TRUE

----------
// values below are reported solubility (mole fraction)
- REPORTED_CONDITIONS: in n-hexane, 298 K
When you answer, write just the number.

Known solubility (mole fraction) results, listed for orientation:
CCc1ccc(NS(=O)(=O)c2ccc(N)cc2)cc1 :: 2.77e-06
Cc1cc(N)ccc1S(=O)(=O)Nc1ccc(Cl)cc1 :: 4.59e-06
Nc1ccc(S(=O)(=O)Nc2cc(Cl)c(Cl)cc2Cl)cc1 :: 6.32e-06
Cc1cc(N)ccc1S(=O)(=O)Nc1ccccc1Cl :: 1.08e-06
Nc1ccc(S(=O)(=O)Nc2cccc(Cl)c2Cl)cc1 :: 6.05e-06
Nc1ccc(S(=O)(=O)N(c2ccccc2)c2ccccc2)cc1 :: 5.4e-06
O=S(=O)(Nc1ccccc1)c1ccccc1 :: 0.000101
COc1ccc(NS(=O)(=O)c2ccc(N)cc2)cc1 :: 2.24e-06

Entry under review: O=S(=O)(Nc1ccc(Cl)cc1)c1ccccc1 . Reported solubility (mole fraction)?
1.37e-06

Entry under review: CCN(CC)S(=O)(=O)c1ccc(N)cc1 . Reported solubility (mole fraction)?
2.41e-05

Entry under review: Cc1cc(N)ccc1S(=O)(=O)Nc1ccccc1[N+](=O)[O-] . Reported solubility (mole fraction)?
3.22e-06

Entry under review: CN(C)S(=O)(=O)c1ccc(N)cc1 . Reported solubility (mole fraction)?
2.9e-06

Entry under review: Nc1ccc(S(=O)(=O)Nc2cc(Cl)ccc2Cl)cc1 . Reported solubility (mole fraction)?
4.69e-06

Entry under review: O=S(=O)(Nc1ncccc1Cl)c1ccccc1 . Reported solubility (mole fraction)?
6.58e-05

Entry under review: Cc1ccc(NS(=O)(=O)c2ccc(N)cc2)c(Cl)c1 . Reported solubility (mole fraction)?
2.43e-06

Entry under review: CCOc1ccc(NS(=O)(=O)c2ccc([N+](=O)[O-])cc2)cc1 . Reported solubility (mole fraction)?
3.95e-06

----------
- REPORTED_CONDITIONS: in n-octanol, 298 K
// values below are reported solubility (mole fraction)
When you answer, write just the number.

Known solubility (mole fraction) results, listed for orientation:
Cc1cc(N)ccc1S(=O)(=O)Nc1ccccc1[N+](=O)[O-] :: 0.000198
CCc1ccc(NS(=O)(=O)c2ccc(N)cc2)cc1 :: 0.00104
O=S(=O)(Nc1ncccc1Cl)c1ccccc1 :: 0.00282
COc1ccc(NS(=O)(=O)c2ccc(N)cc2)cc1 :: 0.000233
Nc1ccc(S(=O)(=O)Nc2cc(Cl)ccc2Cl)cc1 :: 0.000529
CNS(=O)(=O)c1ccc(N)cc1 :: 0.00486

Entry under review: Cc1ccc(Cl)cc1NS(=O)(=O)c1ccc(N)cc1 . Reported solubility (mole fraction)?
0.00188

Entry under review: O=[N+]([O-])c1ccc(NS(=O)(=O)c2ccccc2)cc1 . Reported solubility (mole fraction)?
0.0116

Entry under review: Nc1ccc(S(=O)(=O)Nc2ccc([N+](=O)[O-])cc2Br)cc1 . Reported solubility (mole fraction)?
0.000308

Entry under review: Nc1ccc(S(=O)(=O)Nc2ccc([N+](=O)[O-])cc2)cc1 . Reported solubility (mole fraction)?
0.003

Entry under review: Nc1ccc(S(=O)(=O)Nc2ccc(Cl)cc2)c(Cl)c1 . Reported solubility (mole fraction)?
0.00248

Entry under review: CCOc1ccc(NS(=O)(=O)c2ccc([N+](=O)[O-])cc2)cc1 . Reported solubility (mole fraction)?
0.00125
